System: 415267-285-R-J2-PDC complex spheroid viability;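 further: luminescence used as stand-in measure of viable cells; spheroids exposed to compounds for one week before readout; 100% = DMSO vehicle control viability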
Assay: Anticancer human tumor 415267-285-R-J2-PDC patient-derived breast carcinoma cell line growth inhibition [POLQ]
Conditions: second compound 3.16 µM; first compound 10 µM; hits give low values
Measured attribute: viability, T/C (%)
Reply numerically in %, unit not repeated.

Sample answers from the record:
molecule="O=C(c1cc(Cc2n[nH]c(=O)c3ccccc23)ccc1F)N1CCN(C(=O)C2CC2)CC1 + COC1C(OC(N)=O)C(O)C(Oc2ccc3c(O)c(NC(=O)c4ccc(O)c(CC=C(C)C)c4)c(=O)oc3c2C)OC1(C)C" unit_label=% measured_number=81.4
molecule="O=C(Nc1ccc(O)c(NS(=O)(=O)c2ccc(F)cc2)c1)c1ccc(-c2ccccc2)cc1 + Cc1cccc(N(C)C(=O)C2C(O)CCN2c2nc(C)cc(C(F)(F)F)c2C#N)c1" unit_label=% measured_number=71.6

Next up:
(Q) // fetch viability, T/C for Nc1ccn(C2OC(CO)C(O)C2(F)F)c(=O)n1 (stereo not drawn) + COC1C(OC(N)=O)C(O)C(Oc2ccc3c(O)c(NC(=O)c4ccc(O)c(CC=C(C)C)c4)c(=O)oc3c2C)OC1(C)C ; system: 415267-285-R-J2-PDC complex spheroid viability;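 further: luminescence used as stand-in measure of viable cells; spheroids exposed to compounds for one week before readout; 100% = DMSO vehicle control viability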
(A) 5.83
